What binding signal was measured for each of the following?
Biological target: T1, UNK ZnF1-3 (human, UniProt Q9C0B0 31-174)
T1 sequence: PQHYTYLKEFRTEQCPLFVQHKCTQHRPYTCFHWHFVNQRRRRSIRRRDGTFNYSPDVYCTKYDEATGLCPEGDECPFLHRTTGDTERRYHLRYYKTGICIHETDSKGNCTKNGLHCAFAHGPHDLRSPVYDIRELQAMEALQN
Experiment: nsRBNS (natural sequence RNA bind-n-seq); RBNS binding buffer (assumed for nsRBNS): 25 mM Tris pH 7.5, 150 mM KCl, 3 mM MgCl2, 0.01% Triton X-100, 500 ug/ml BSA, 20 U/ml SUPERase-In, 4 C; UNK is unkempt and MSI1 is Musashi-1; names of the RNAs are library labels; protein concentration not given here; high values mean tight binding
The full ranking holds about 24,000 sequences; the median of “enrichment r” is about 0.99, and the highest 2% start at about 3.7. Shown is part of a subset that was picked to be rich in the highest values.
The reply should be a number in enrichment R, with the unit left off.

Find the recorded binding signal belonging to chr1:183098298:183098299:+_ENSMUSG00000062169_ENSMUST00000134115|mus_hu|FALSE|FALSE (ssRNA) RNA: GGGAGUUCUACAGUCCGACGAUCUAUAAACAUGGCACCUUUCUGAUUUGCUUAGCCUCAGCAAGCCUGAUGUACUGUAAACUGACAGCCCAAAGGCUCUCUCAACUGCAUGAGUCACUGUUUUGGUUACUAAGAAUAUCUGAACAACAGAGGAUUGAGCAUCA and report it.
0.858

Another binder to look at: chr17:56552419:56552420:-_ENSMUSG00000013236_ENSMUST00000086828|mus_mus|mus_mus_mus_hu_False|28_98 (ssRNA) RNA: GGGAGUUCUACAGUCCGACGAUCAAAAAAUACACUAUAAAAAAAAAAUGAAAUGUCACGGGAUACAGUUACACUGAGAGUUUUAAAAGAAAGCUGGAUUCUGGUCCUUGCCAAAAGUCCCCAGGCUGCAGAGCGGGGAGGAGCCAACAGAGGAUUGAGCAUCA
6.54

Another binder to look at: chr17:56552419:56552420:-_ENSMUSG00000013236_ENSMUST00000086828|mus_mus|mus_mus_mus_hu_False|28_48 (ssRNA) RNA: GGGAGUUCUACAGUCCGACGAUCAAAAAAUACACUAUUUAAAAAAAAUGAAAUGUCACGGGAUACAGUUACACUGAGAGUUUUAAAAAAAAAUAAGAUUCUGGUCCUUGCCAAAAGUCCCCAGGCUGCAGAGCGGGGAGGAGCCAACAGAGGAUUGAGCAUCA
6.32

Another binder to look at: chr17:56552419:56552420:-_ENSMUSG00000013236_ENSMUST00000086828|mus_mus|mus_mus_mus_hu_False|28_78 (ssRNA) RNA: GGGAGUUCUACAGUCCGACGAUCAAAAAAUACACUAUUUAAAAAAAAUGAAAUGUCAGAAAAAGAAGUUACACUGAGAGUUUUAAAAGAAAGCUGGAUUCUGGUCCUUGCCAAAAGUCCCCAGGCUGCAGAGCGGGGAGGAGCCAACAGAGGAUUGAGCAUCA
3.64

Another binder to look at: chr8:29927545:29927546:-_ENSG00000133872_ENST00000521265|hu_mus|FALSE|FALSE (ssRNA) RNA: GGGAGUUCUACAGUCCGACGAUCAGAGGACUCGUAGCCUUCACAGCUCACCACAGUUUUGCCAAAUUUGUAUGCAAUAUCCAAGUCGGUCUUACAUUCCCACUGUACAUCGUAGCCAUCCCAGCCUUUGUUCUGGCACUGUAUCAACAGAGGAUUGAGCAUCA
0.8

Another binder to look at: 19964410_19964530_1467_3pUTR_ENSMUSG00000020152_ENSMUST00000000137|mouse|control|control (ssRNA) RNA: GGGAGUUCUACAGUCCGACGAUCUCUAAAUGCCUACAAAGAAAGAAACAGAGCAGCAGCAACCCCUUGCCCUGGUAAUGUCUGCAAAGAUUUGGUAGCCUUAAACAACCAGAUUUACCCAUAUUAACAAGAAUUUAGCAAUGCCAACAGAGGAUUGAGCAUCA
1.74

Another binder to look at: chr2:25965407:25965408:-_ENSG00000143970_ENST00000336112|hu_mus|motif|central (ssRNA) RNA: GGGAGUUCUACAGUCCGACGAUCAUGUGCUGCCGGAAUAAAAUCUCUAGGCAGGCUCUUUUCAUCAGAUGCUUGGCCUCGGGAGAAUAUGUAAUUCUCCUGGCCUAAAGUGGUUUGCUCACUCACUGGUGCCUCAGUCUUACCCAACAGAGGAUUGAGCAUCA
0.714
